Species on record: Cavia porcellus
Experiment: Effective refractory period of contractile response in isolated guinea-pig papillary muscles at 3 Hz and 1 uM.
Assay type: functional, Muscle tissue
Consider the cut-off 30%. If the recorded Delta ERPc is strictly smaller, the label is fulfilled; if not, the label is not fulfilled.

[[record]]
sample_smiles = "COc1ccc(CCN(C)CCOc2ccc(NS(C)(=O)=O)cc2)cc1OC"
label_value = "fulfilled"

[[record]]
sample_smiles = "COc1ccc(CCN(C)CCOc2ccc(NS(C)(=O)=O)cc2NC(C)=O)cc1OC"
label_value = "fulfilled"

[[record]]
sample_smiles = "COc1ccc(CCN(C)CCOc2ccc(NS(C)(=O)=O)cc2C)cc1OC"
label_value = "fulfilled"

[[record]]
sample_smiles = "COc1ccc(CCN(C)CCOc2ccc(NS(C)(=O)=O)cc2I)cc1OC"
label_value = "fulfilled"

[[record]]
sample_smiles = "COc1cc(C)c(CCN(C)CCOc2ccc(NS(C)(=O)=O)cc2Cl)cc1OC"
label_value = "not fulfilled"

[[record]]
sample_smiles = "COc1ccc(CCN(C)CCOc2ccc(NS(C)(=O)=O)cc2[N+](=O)[O-])cc1OC"
label_value = "fulfilled"

[[record]]
sample_smiles = "COc1cc(CCN(C)CCOc2ccc(NS(C)(=O)=O)cc2Cl)c([N+](=O)[O-])cc1OC"
label_value = "not fulfilled"

[[record]]
sample_smiles = "COc1cc(C)c(CCN(C)CCOc2ccc(NS(C)(=O)=O)cc2-n2cccc2)cc1OC"
label_value = "fulfilled"

[[record]]
sample_smiles = "COc1cc(N)c(CCN(C)CCOc2ccc(NS(C)(=O)=O)cc2-n2cccc2)cc1OC"
label_value = "fulfilled"


====

Measured Delta ERPc values are reported for all entries that follow.
Organism: Cavia porcellus
Experiment: Effective refractory period of contractile response in isolated guinea-pig papillary muscles at 1 Hz and 1 uM.
Assay type: functional, Muscle tissue
Measurement type: Delta ERPc

[[record]]
sample_smiles = "COc1ccc(CCN(C)CCOc2ccc(NS(C)(=O)=O)cc2Cl)cc1OC"
measurement_type = "Delta ERPc"
test_result = "32.2%"

[[record]]
sample_smiles = "COc1cc(CCN(C)CCOc2ccc(NS(C)(=O)=O)cc2Cl)c([N+](=O)[O-])cc1OC"
measurement_type = "Delta ERPc"
test_result = "29.4%"

[[record]]
sample_smiles = "COc1ccc(CCN(C)CCOc2ccc(NS(C)(=O)=O)cc2I)cc1OC"
measurement_type = "Delta ERPc"
test_result = "28.9%"

[[record]]
sample_smiles = "COc1ccc(CCN(C)CCOc2ccc(NS(C)(=O)=O)cc2)cc1OC"
measurement_type = "Delta ERPc"
test_result = "60.1%"

